biological target: T1, human programmed cell death protein 1 (hPD-1) C93S (aa 24-167) (Homo sapiens, UniProt Q15116, C93S); assay: SPR; Carterra LSA; Fab from the ammonium sulfate precipitate of the culture supernatant immobilised on a NiHC200M chip; hPD-1 (1-1024 nM) or mPD-1-Fc (4-1024 nM) as analyte, fourfold dilution series, no regeneration; HBS-EP pH 7.4, 25 °C; medians over the spots of a construct, KD = koff/kon; conditions: one partner purified
T1 construct: made as a fusion with a TEV site and human Fc; the Fc was cut off with TEV protease; source: Expi293F, purified (Protein A, TEV cleavage of Fc, SEC; monomer fractions); not shown: Fc (human), C-terminal, cleaved
T1 sequence (Q15116 24-167 C93S): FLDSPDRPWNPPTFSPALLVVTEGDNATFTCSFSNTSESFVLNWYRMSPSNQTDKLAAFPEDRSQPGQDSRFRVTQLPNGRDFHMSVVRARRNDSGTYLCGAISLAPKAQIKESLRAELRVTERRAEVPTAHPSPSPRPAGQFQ
OBSERVATION_TYPE: Kd

{"columns": ["BINDER", "REPORTED_MEASUREMENT"],
 "data": [
  ["toripalimab Fab L.S97Y (Fab, V domains shown, as the heavy chain of Sm3; light chain of Sm3 with this change; numbers count from the chain's first residue; source: Brevibacillus, culture supernatant (ammonium sulfate precipitate); not shown: 6xHis, C-terminal, kept; 6xHN, C-terminal, kept) VH: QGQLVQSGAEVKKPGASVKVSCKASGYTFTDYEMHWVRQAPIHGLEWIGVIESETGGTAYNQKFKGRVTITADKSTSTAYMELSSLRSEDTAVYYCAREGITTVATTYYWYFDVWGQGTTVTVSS VL: DVVMTQSPLSLPVTLGQPASISCRSSQSIVHSNGNTYLEWYLQKPGQSPQLLIYKVSNRFSGVPDRFSGSGSGTDFTLKISRVEAEDVGVYYCFQGYHVPLTFGQGTKLEIK", "63.3 nM"],
  ["toripalimab Fab L.Q27Y (Fab, V domains shown, as the heavy chain of Sm3; light chain of Sm3 with this change; numbers count from the chain's first residue; source: Brevibacillus, culture supernatant (ammonium sulfate precipitate); not shown: 6xHis, C-terminal, kept; 6xHN, C-terminal, kept) VH: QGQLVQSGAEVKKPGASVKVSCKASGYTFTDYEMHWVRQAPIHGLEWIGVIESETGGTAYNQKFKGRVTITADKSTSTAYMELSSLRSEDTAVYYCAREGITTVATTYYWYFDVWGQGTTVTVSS VL: DVVMTQSPLSLPVTLGQPASISCRSSYSIVHSNGNTYLEWYLQKPGQSPQLLIYKVSNRFSGVPDRFSGSGSGTDFTLKISRVEAEDVGVYYCFQGSHVPLTFGQGTKLEIK", "< 0.342 nM"],
  ["toripalimab Fab L.N35Y (Fab, V domains shown, as the heavy chain of Sm3; light chain of Sm3 with this change; numbers count from the chain's first residue; source: Brevibacillus, culture supernatant (ammonium sulfate precipitate); not shown: 6xHis, C-terminal, kept; 6xHN, C-terminal, kept) VH: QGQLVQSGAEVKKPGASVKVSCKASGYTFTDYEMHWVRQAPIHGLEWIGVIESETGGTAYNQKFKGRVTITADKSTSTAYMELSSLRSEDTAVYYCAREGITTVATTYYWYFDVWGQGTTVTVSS VL: DVVMTQSPLSLPVTLGQPASISCRSSQSIVHSNGYTYLEWYLQKPGQSPQLLIYKVSNRFSGVPDRFSGSGSGTDFTLKISRVEAEDVGVYYCFQGSHVPLTFGQGTKLEIK", "< 0.431 nM"]
]}
